Recorded Post-emergence action against ALOMY, one value per entry.
Test system: ALOMY
Experiment: Post-emergence action against ALOMY, 320 g/ha
Format: in vivo, Alopecurus myosuroides
Details: dosage 320 g/ha, visual rating about 3 weeks after treatment vs untreated controls (100% = plants died)
Put your answer as a value accompanied by its unit after it.

COMPOUND | ATTRIBUTE_MEASURED | RESULT
COC(=O)CNC(=O)COc1nn(-c2ccccc2F)c(-c2ccc(F)nc2)c1Br | Post-emergence action against ALOMY | 100%
O=C(O)COc1nn(-c2ccccc2F)c(-c2cncc(F)c2)c1Br | Post-emergence action against ALOMY | 100%

Data request: Requested read-out: Post-emergence action against ALOMY. Entry: COC(=O)COc1nn(-c2ccc(F)cc2)c(-c2cccnc2)c1Br
Data returned: 80%

Data request: Given the compound CCOC(=O)COc1nn(-c2ccccc2F)c(-c2ccc(F)nc2)c1C , what is its reported Post-emergence action against ALOMY?
Data returned: 90%

Data request: Would you mind telling me what Post-emergence action against ALOMY value was observed for CCC(Oc1nn(-c2ccccc2F)c(-c2ccc(F)nc2)c1Br)C(=O)OC (stereo not drawn) ?
Data returned: 100%

Data request: Reported Post-emergence action against ALOMY, compound O=C(COc1nn(-c2ccccc2F)c(-c2ccc(F)nc2)c1Br)OCC1OCCO1 : ____
Data returned: 100%

Data request: Could you tell me which Post-emergence action against ALOMY is on file for CCOC(=O)COc1nn(-c2ccccc2F)c(-c2ccnc(F)c2)c1Br [VIII-003] ?
Data returned: 90%

Data request: Reported Post-emergence action against ALOMY, compound CCOC(=O)COc1nn(-c2ccccc2F)c(-c2ccc(F)nc2)c1F : ____
Data returned: 90%

Data request: So what's the measured Post-emergence action against ALOMY for this one? CCOC(=O)COc1nn(-c2ccccc2F)c(-c2ccc(F)nc2)c1I
Data returned: 90%

---

Test system: ALOMY
Assay: Post-emergence action against ALOMY, 320 g/ha
Format: in vivo, Alopecurus myosuroides
Conditions: dosage 320 g/ha, visual rating about 3 weeks after treatment vs untreated controls (100% = plants died)
ATTRIBUTE_MEASURED: Post-emergence action against ALOMY (%)
Only the number, expressed in %, is required.

Here is how some molecules turned out for Post-emergence action against ALOMY.
STRUCTURE_SMILES_STRING | TGT | NUMERIC_RESULT
COC(=O)CCOC(=O)COc1nn(-c2ccccc2F)c(-c2ccc(F)nc2)c1Br | ALOMY | 100
COC(=O)[C@@H](C)Oc1nn(-c2ccccc2)c(-c2cccnc2)c1Br | ALOMY | 100
COC(=O)[C@@H](C)Oc1nn(-c2ccccc2)c(-c2cncnc2)c1Br | ALOMY | 80

Attention now shifts to the item below.
Data request: Recorded Post-emergence action against ALOMY for CS(=O)(=O)NC(=O)COc1nn(-c2ccccc2F)c(-c2ccc(F)nc2)c1Br , please?
Data returned: 100

---

Reported Pre-emergence action against ECHGC in % values for the following compounds.
Test system: ECHGC
Assay: Pre-emergence action at 320 g/ha against ECHGC
Assay type: in vivo, Echinochloa crus-galli
Conditions: visual scoring after about 3 weeks vs untreated controls
The reply should contain only the number, in %.

Solved entries (count: 8):
STRUCTURE_SMILES_STRING | TGT | ATTRIBUTE_MEASURED | NUMERIC_RESULT
O=C(O)COc1nn(-c2ccccc2F)c(-c2ccc(F)nc2)c1I | ECHGC | Pre-emergence action against ECHGC in % | 80
COC(=O)CNC(=O)COc1nn(-c2ccccc2F)c(-c2ccc(F)nc2)c1Br | ECHGC | Pre-emergence action against ECHGC in % | 100
C[C@@H](Oc1nn(-c2cc(F)ccc2F)c(-c2cncc(F)c2)c1Br)C(=O)O | ECHGC | Pre-emergence action against ECHGC in % | 90
COC(=O)[C@@H](C)Oc1nn(-c2ccccc2F)c(-c2cncnc2)c1Br | ECHGC | Pre-emergence action against ECHGC in % | 80
O=C(O)COc1nn(-c2ccccc2F)c(-c2ccc(F)nc2)c1Br | ECHGC | Pre-emergence action against ECHGC in % | 100
O=C(O)COc1nn(-c2ccccc2F)c(-c2ccnc(F)c2)c1Br | ECHGC | Pre-emergence action against ECHGC in % | 90
CCOC(=O)COc1nn(-c2ccccc2F)c(-c2ccc(F)nc2)c1C | ECHGC | Pre-emergence action against ECHGC in % | 90
COC(=O)COc1nn(-c2ccccc2F)c(-c2ccc(F)nc2)c1Br | ECHGC | Pre-emergence action against ECHGC in % | 100

Then this compound:
Data request: Any idea what Pre-emergence action against ECHGC in % was measured for COC(=O)[C@@H](C)Oc1nn(-c2cc(F)ccc2F)c(-c2cncc(F)c2)c1Br ?
Data returned: 90

---

Test system: LOLRI
Assay: Post-emergence action against LOLRI, 1.28 kg/ha
Assay type: in vivo, Lolium rigidum
Conditions: dosage 1280 g/ha, visual rating about 3 weeks after treatment vs untreated controls
ATTRIBUTE_MEASURED: Post-emergence action against LOLRI (%)
Expressed in %, but write only the number.

COMPOUND | MEASURE_UNIT | Post-emergence action against LOLRI
COC(=O)C(C)Oc1nn(-c2ccccc2)c(-c2ccnc(Cl)c2)c1Cl (stereo not drawn) [VIII-001] | % | 90
COC(=O)COc1nn(-c2cc(F)ccc2F)c(-c2ccnc(F)c2)c1Br [VIII-010] | % | 100
COC(=O)[C@@H](C)Oc1nn(-c2cc(F)ccc2F)c(-c2ccc(F)nc2)c1Br [VII-062] | % | 100
COC(=O)C(C)Oc1nn(-c2ccccc2)c(-c2cccnc2)c1Cl (stereo not drawn) [VII-032] | % | 100
CCOC(=O)COc1nn(-c2ccc(F)cc2)c(-c2ccc(F)nc2)c1Br [VII-065] | % | 90
CCOC(=O)COc1nn(-c2ccccc2F)c(-c2ccc(F)nc2)c1C [VII-117] | % | 100

Data request: Sample O=C(O)CNC(=O)COc1nn(-c2ccccc2F)c(-c2ccc(F)nc2)c1Br [Example X-021-a] — what was its Post-emergence action against LOLRI?
Data returned: 100

Data request: Which value of Post-emergence action against LOLRI has been reported for COC(=O)[C@@H](C)Oc1nn(-c2cc(F)ccc2F)c(-c2cncc(F)c2)c1C#N [VII-147] in the records?
Data returned: 100

Data request: What value of Post-emergence action against LOLRI has been reported for the following compound? COC(=O)[C@@H](C)Oc1nn(-c2ccccc2)c(-c2cncnc2)c1Br [VI-013]
Data returned: 90

Data request: Could you share which Post-emergence action against LOLRI value was measured for COC(=O)C(C)Oc1nn(-c2ccccc2)c(-c2ccc(F)nc2)c1Br (stereo not drawn) [VII-014] ?
Data returned: 90

---

Reported values of Pre-emergence action against ECHGC in % for individual entries
Tested on: ECHGC
Test: Pre-emergence action at 320 g/ha against ECHGC
Type: in vivo, Echinochloa crus-galli
Settings: visual scoring after about 3 weeks vs untreated controls
Numbers only; they are read as %.

Below are worked cases with known answers.
COMPOUND | TGT | NUMERIC_RESULT
COC(=O)[C@@H](C)Oc1nn(-c2cc(F)ccc2F)c(-c2cncc(F)c2)c1C#N [VII-147] | ECHGC | 100
CON(C)C(=O)COc1nn(-c2ccccc2F)c(-c2ccc(F)nc2)c1Br [Example X-019] | ECHGC | 100
N#CCCOC(=O)COc1nn(-c2ccccc2F)c(-c2ccc(F)nc2)c1Br [VII-110] | ECHGC | 100

Data request: Report Pre-emergence action against ECHGC in % for CCOC(=O)C(C)Oc1nn(-c2ccccc2F)c(-c2ccc(F)nc2)c1C(F)(F)F (centres unmarked) [VII-066] please.
Data returned: 90

Data request: Which Pre-emergence action against ECHGC in % is listed for COC(=O)COc1nn(-c2ccc(F)cc2)c(-c2cccnc2)c1Br [VII-028] ?
Data returned: 80

---

Attribute: Pre-emergence action against AMARE
Tested on: AMARE
Assay: Pre-emergence action against AMARE, 1280 g/ha
Type: in vivo, Amaranthus retroflexus
Settings: scored visually after about 3 weeks vs untreated controls (100% = plants have died)
Remember to quote the unit after the number.

COMPOUND | Pre-emergence action against AMARE
COC(=O)COc1nn(-c2ccc(F)cc2)c(-c2cccnc2)c1Br [VII-028] | 90%
O=C(COc1nn(-c2ccccc2F)c(-c2ccc(F)nc2)c1Br)OCC1CCCO1 (stereo not drawn) [VII-090] | 100%
COC(=O)CNC(=O)COc1nn(-c2ccccc2F)c(-c2ccc(F)nc2)c1Br [Example X-002] | 100%
CCOC(=O)COc1nn(-c2ccccc2F)c(-c2ccc(F)cn2)c1Br [II-014] | 90%
CN(C)S(=O)(=O)NC(=O)COc1nn(-c2ccccc2F)c(-c2ccc(F)nc2)c1Br [Example X-005] | 100%

Data request: For the compound shown here, O=C(O)COc1nn(-c2ccccc2F)c(-c2cncc(F)c2)c1Br [VII-025] , give the reported Pre-emergence action against AMARE.
Data returned: 100%

Data request: // query Pre-emergence action against AMARE value for entry CCOC(=O)COc1nn(-c2ccccc2F)c(-c2ccc(F)nc2)c1SC [VII-021]
Data returned: 90%

Data request: What value of Pre-emergence action against AMARE has been reported for the following compound? COC(=O)[C@@H](C)Oc1nn(-c2ccccc2F)c(-c2ccc(F)nc2)c1Br [VII-123-a]
Data returned: 100%

Data request: Using the record for COC(=O)COc1nn(-c2ccccc2)c(-c2ccc(F)nc2)c1Br [VII-018] , report its Pre-emergence action against AMARE.
Data returned: 100%

Data request: # Pre-emergence action against AMARE lookup, item O=C(O)C1CCCN1C(=O)COc1nn(-c2ccccc2F)c(-c2cncc(F)c2)c1Br (stereo not drawn) [Example X-039]
Data returned: 100%

Data request: Value lookup for Pre-emergence action against AMARE; key = CS(=O)(=O)NC(=O)COc1nn(-c2ccccc2F)c(-c2ccnc(F)c2)c1Br [VIII-012]
Data returned: 100%

Data request: So what's the measured Pre-emergence action against AMARE for this one? COC(=O)[C@@H](C)Oc1nn(-c2ccccc2F)c(-c2cncnc2)c1[N+](=O)[O-] [VI-006]
Data returned: 90%

Data request: Quick one: Pre-emergence action against AMARE of CCOC(=O)COc1nn(-c2ccc(F)cc2)c(-c2ccc(F)nc2)c1C(F)(F)F [VII-059] ?
Data returned: 100%
